Where do these numbers come from? They come from patent US20260124191A1.

System: human breast cancer cells MCF7
Assay: In vitro anti-tumor activity, MTT method
Assay type: cell-based
Conditions: Homo sapiens, MCF7, 96 h, MCF-7, MTT, 96-hour treatment
pIC50: −log10 of the molar value.
experimental-endpoint: pIC50

These recorded examples may help you get a feel for the data.
O=C(CCCCCN1C(=O)C/C(=C\c2ccccc2)C1=O)N[C@H]1CCCC[C@@H]1O: < 4.70
O=C(CCCN1C(=O)C/C(=C\c2ccccc2)C1=O)NO: < 4.70

The record that follows has no pIC50 shown yet.
Record `Nc1cc(F)ccc1NC(=O)CCCCN1C(=O)C/C(=C\c2ccccc2)C1=O` . Reported pIC50: < 4.70
